TESTED SYSTEM: HLA-A*68:23
PROTOCOL DESCRIPTION: IEDB peptide-MHC binding, purified MHC/competitive/fluorescence; filed as Kd, often an IC50 or EC50 that approximates it; bounds were set here for any values at or beyond the usual limits of such assays
CONDITION: source organism: Homo sapiens
METRIC: pKd
Formally, pKd is defined as -log10 of the concentration c, with c in mol/L.

Give pKd for RLPKDFVDL
7.17

---

Reported pKd values follow for various sequences
TESTED SYSTEM: HLA-A*69:01
PROTOCOL DESCRIPTION: IEDB peptide-MHC binding, purified MHC/competitive/fluorescence; filed as Kd, often an IC50 or EC50 that approximates it; bounds were set here for any values at or beyond the usual limits of such assays
CONDITION: source organism: Zaire ebolavirus
pKd: −log10 of the molar value.

Reference set (3 entries):
{"CHAIN": "VVRVRRELL", "TESTED SYSTEM": "HLA-A*69:01", "ENDPOINT VALUE": "≤ 4.70"}
{"CHAIN": "TVIYRGTTF", "TESTED SYSTEM": "HLA-A*69:01", "ENDPOINT VALUE": "≤ 4.70"}
{"CHAIN": "RVPTVFHKK", "TESTED SYSTEM": "HLA-A*69:01", "ENDPOINT VALUE": "≤ 4.70"}

Please find the next sequence below.
Give pKd for HLSGWELAK
≤ 4.70

---

TESTED SYSTEM: HLA-B*57:01
PROTOCOL DESCRIPTION: IEDB peptide-MHC binding, purified MHC/direct/fluorescence; filed as Kd, often an IC50 or EC50 that approximates it; bounds were set here for any values at or beyond the usual limits of such assays
CONDITION: source organism: Vibrio parahaemolyticus
METRIC: Kd

Enter Kd (test system HLA-B*57:01) for VFMDNAFKK
≥ 20 µM

---

TESTED SYSTEM: HLA-A*68:01
PROTOCOL DESCRIPTION: IEDB peptide-MHC binding, purified MHC/competitive/radioactivity; filed as Kd, often an IC50 or EC50 that approximates it; bounds were set here for any values at or beyond the usual limits of such assays
CONDITION: source organism: Lassa virus Josiah
METRIC: Kd
Entry format: amount then unit.

{"CHAIN": "SAVIDALPR", "Kd": "53.3 nM"}

Enter Kd (test system HLA-A*68:01) for FLWTQSLRR
320 nM

Enter Kd (test system HLA-A*68:01) for RASLIPDATH
19600 nM

---

TESTED SYSTEM: HLA-B*27:05
PROTOCOL DESCRIPTION: IEDB peptide-MHC binding, purified MHC/direct/fluorescence; filed as Kd, often an IC50 or EC50 that approximates it; bounds were set here for any values at or beyond the usual limits of such assays
CONDITION: source organism: Salmonella enterica subsp. enterica serovar Typhi
pKd: −log10 of the molar value.
METRIC: pKd

Enter pKd (test system HLA-B*27:05) for LPLIVDTAA
≤ 4.70

---

TESTED SYSTEM: HLA-B*51:01
PROTOCOL DESCRIPTION: IEDB peptide-MHC binding, purified MHC/competitive/fluorescence; filed as Kd, often an IC50 or EC50 that approximates it; bounds were set here for any values at or beyond the usual limits of such assays
CONDITION: source organism: Cryptosporidium parvum Iowa II
METRIC: Kd

Give Kd for LTAPCDIYV
≥ 20 µM

---

TESTED SYSTEM: HLA-B*53:01
PROTOCOL DESCRIPTION: IEDB peptide-MHC binding, purified MHC/competitive/radioactivity; filed as Kd, often an IC50 or EC50 that approximates it; bounds were set here for any values at or beyond the usual limits of such assays
CONDITION: source organism: Lymphocytic choriomeningitis virus (strain Armstrong)
METRIC: Kd (nM)
Response body: numeric value in nM, unit text excluded.

Enter Kd (test system HLA-B*53:01) for EPVPLTVKM
327

---

TESTED SYSTEM: HLA-A*01:01
PROTOCOL DESCRIPTION: IEDB peptide-MHC binding, purified MHC/direct/fluorescence; filed as Kd, often an IC50 or EC50 that approximates it; bounds were set here for any values at or beyond the usual limits of such assays
CONDITION: source organism: Mycobacterium tuberculosis
pKd: −log10 of the molar value.
Reported pKd values follow for various sequences

{"CHAIN": "FHVNPAFVL", "pKd": "≤ 4.70"}

Please find the next sequence below.
Enter pKd (test system HLA-A*01:01) for YPARVKCAL
≤ 4.70

---

TESTED SYSTEM: HLA-A*03:01
PROTOCOL DESCRIPTION: IEDB peptide-MHC binding, purified MHC/competitive/fluorescence; filed as Kd, often an IC50 or EC50 that approximates it; bounds were set here for any values at or beyond the usual limits of such assays
CONDITION: source organism: Influenza A virus (A/Memphis/1/1978(H1N1))
METRIC: Kd (nM)
Response body: numeric value in nM, unit text excluded.

Give Kd for RLFKHGLKR
7.9

---

Reported Kd values follow for various sequences
TESTED SYSTEM: HLA-A*11:01
PROTOCOL DESCRIPTION: IEDB peptide-MHC binding, purified MHC/competitive/radioactivity; filed as Kd, often an IC50 or EC50 that approximates it; bounds were set here for any values at or beyond the usual limits of such assays
CONDITION: source organism: Vaccinia virus Copenhagen
Response body: numeric value in µM, unit text excluded.

{"CHAIN": "SLAIKNYYR", "UNIT TEXT": "µM", "ENDPOINT VALUE": 6.06}

Please find the next sequence below.
Give Kd for ILNFLDWIK
0.155

---

TESTED SYSTEM: HLA-B*15:17
PROTOCOL DESCRIPTION: IEDB peptide-MHC binding, purified MHC/competitive/fluorescence; filed as Kd, often an IC50 or EC50 that approximates it; bounds were set here for any values at or beyond the usual limits of such assays
CONDITION: source organism: Human immunodeficiency virus 1
pKd: −log10 of the molar value.
METRIC: pKd

Give pKd for LYNTVATLY
≤ 4.70

---

TESTED SYSTEM: HLA-B*57:01
PROTOCOL DESCRIPTION: IEDB peptide-MHC binding, purified MHC/competitive/fluorescence; filed as Kd, often an IC50 or EC50 that approximates it; bounds were set here for any values at or beyond the usual limits of such assays
CONDITION: source organism: Entamoeba histolytica HM-1:IMSS
pKd: −log10 of the molar value.
METRIC: pKd

Enter pKd (test system HLA-B*57:01) for RSLVCLAPK
≤ 4.70

---

TESTED SYSTEM: HLA-B*58:01
PROTOCOL DESCRIPTION: IEDB peptide-MHC binding, purified MHC/direct/fluorescence; filed as Kd, often an IC50 or EC50 that approximates it; bounds were set here for any values at or beyond the usual limits of such assays
CONDITION: source organism: Influenza A virus (A/equine/New York/1/1999(H3N8))
METRIC: Kd
Entry format: amount then unit.

Give Kd for VAGGTSSVY
2890 nM

---

TESTED SYSTEM: HLA-A*32:15
PROTOCOL DESCRIPTION: IEDB peptide-MHC binding, purified MHC/competitive/fluorescence; filed as Kd, often an IC50 or EC50 that approximates it; bounds were set here for any values at or beyond the usual limits of such assays
CONDITION: source organism: Entamoeba histolytica HM-1:IMSS
METRIC: Kd (nM)
Response body: numeric value in nM, unit text excluded.

Enter Kd (test system HLA-A*32:15) for MPYHGYHII
134

---

Reported pKd values follow for various sequences
TESTED SYSTEM: HLA-A*02:06
PROTOCOL DESCRIPTION: IEDB peptide-MHC binding, purified MHC/competitive/radioactivity; filed as Kd, often an IC50 or EC50 that approximates it; bounds were set here for any values at or beyond the usual limits of such assays
CONDITION: source organism: Dengue virus 1 Brazil/97-11/1997
Formally, pKd is defined as -log10 of the concentration c, with c in mol/L.

Reference set (3 entries):
{"CHAIN": "SIILEFFLMV", "ENDPOINT VALUE": 7.80}
{"CHAIN": "LVMAFIAFL", "ENDPOINT VALUE": 7.84}
{"CHAIN": "MLLMLLPTAL", "ENDPOINT VALUE": 8.27}

Please find the next sequence below.
Give pKd for FIAFLRFLAI
7.83

---

TESTED SYSTEM: HLA-B*15:01
PROTOCOL DESCRIPTION: IEDB peptide-MHC binding, purified MHC/direct/fluorescence; filed as Kd, often an IC50 or EC50 that approximates it; bounds were set here for any values at or beyond the usual limits of such assays
CONDITION: source organism: Vibrio parahaemolyticus
pKd: −log10 of the molar value.
Reported pKd values follow for various sequences

{"CHAIN": "ASEELMDKY", "TESTED SYSTEM": "HLA-B*15:01", "METRIC": "pKd", "ENDPOINT VALUE": "≤ 4.70"}

Please find the next sequence below.
Give pKd for VFMDNAFKK
≤ 4.70
